Ref: patent US20060257938A1

Please go through the items and note down their DR/DR SA.
Experiment: Probe fluorescence ratio response to stearic acid relative to ADIFAB2
Assay type: binding
Details: response relative to ADIFAB2
A bare number is all that is needed in reply.

The molecule identified as 18I 31V 73G 72A (protein, listed as Rattus norvegicus, PEPTIDE (1)...(131) wild-type rat intestinal fatty acid binding protein) AFDGTWKVDRNENYEKFIEKMGINVVKRKLVAHDNLKLTITQEGNKFTVKESSNFRNIDVVFELGVDFAYSAGDGTELTGTWTMEGNKLVGKFKRVDNGKELIAVREISGNELIQTYTYEGVEAKRIFKKE registered its DR/DR SA at 0.543

The molecule identified as 72T 73V 74V (protein, listed as Rattus norvegicus, PEPTIDE (1)...(131) wild-type rat intestinal fatty acid binding protein) AFDGTWKVDRNENYEKFMEKMGINVVKRKLGAHDNLKLTITQEGNKFTVKESSNFRNIDVVFELGVDFAYSTVVGTELTGTWTMEGNKLVGKFKRVDNGKELIAVREISGNELIQTYTYEGVEAKRIFKKE registered its DR/DR SA at 1.918

The molecule identified as 72A 73W 74S (protein, listed as Rattus norvegicus, PEPTIDE (1)...(131) wild-type rat intestinal fatty acid binding protein) AFDGTWKVDRNENYEKFMEKMGINVVKRKLGAHDNLKLTITQEGNKFTVKESSNFRNIDVVFELGVDFAYSAWSGTELTGTWTMEGNKLVGKFKRVDNGKELIAVREISGNELIQTYTYEGVEAKRIFKKE registered its DR/DR SA at 1.095

The molecule identified as 74S 72A 73F (protein, listed as Rattus norvegicus, PEPTIDE (1)...(131) wild-type rat intestinal fatty acid binding protein) AFDGTWKVDRNENYEKFMEKMGINVVKRKLGAHDNLKLTITQEGNKFTVKESSNFRNIDVVFELGVDFAYSAFSGTELTGTWTMEGNKLVGKFKRVDNGKELIAVREISGNELIQTYTYEGVEAKRIFKKE registered its DR/DR SA at 0.337
